Test system: Vero cells
Test: MTT cytotoxicity assay on Vero cells
Format: cell-based
Settings: Chlorocebus sabaeus
Description: Vero cells are known for their ability to assess the safety of new compounds and their sensitivity to a wide range of toxic substances. MDA-MB-231 cells are derived from human ER-positive breast cancer tissue. […] We assessed the anticancer activity of the compounds on Vero cells and MDA-MB-231 using the MTT (3-(4,5-dimethyl thiazol-2yl)-2,5-diphenyl tetrazolium bromide) assay. […]
readout: IC50 (µM)
Number in µM, nothing else.

Here is how some compounds turned out for IC50.
compound | target system | IC50 [µM]
O=[N+]([O-])c1ccc(/C=N/C(=S)N/N=c2\cc(O)c3ccccc3o2)cc1 [Compound 9l] | Vero cells | 87.7
Oc1c/c(=N\NC(=S)/N=C/c2ccc(Br)cc2)oc2ccccc12 [Compound 9m] | Vero cells | 68.7

INPUT: Find IC50 for Oc1c/c(=N\NC(=S)/N=C/c2ccc(Cl)cc2)oc2ccccc12 [Compound 9b] on Vero cells and write it down.
OUTPUT: 60.9

Where do the numbers come from? From paper PMC12028564.
